- Test target: Grb2 SH2 (UniProt P62993)
- Sequence (P62993 whole entry, looked up, the tested form may be a part): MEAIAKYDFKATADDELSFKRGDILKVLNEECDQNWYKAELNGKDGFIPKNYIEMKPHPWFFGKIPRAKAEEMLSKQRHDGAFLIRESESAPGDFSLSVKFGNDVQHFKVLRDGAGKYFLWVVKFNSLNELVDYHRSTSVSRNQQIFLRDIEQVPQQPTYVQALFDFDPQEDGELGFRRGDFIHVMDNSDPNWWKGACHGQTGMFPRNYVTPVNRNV
- Assay overview: SH2 binding enrichment of the phosphorylated peptide, bacterial display (enrichment ratio); higher = better substrate or ligand; peptides without Tyr show the background;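 also: peptide library displayed on the E. coli surface as eCPX fusions, selected cells deep-sequenced, score is each peptide's frequency after selection divided by its frequency in the input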
Answer each item with its documented SH2 binding enrichment.
Respond using a number only.

Query string: What value of SH2 binding enrichment has been recorded for this entry: DTLMEYLENPK [CYCS_Y68]
Result string: 0.915

Query string: SH2 binding enrichment lookup needed for NFRPGYNNFFN [USH2A_Y467_YF] , thanks.
Result string: 0.9

Query string: Recorded SH2 binding enrichment for SSMIDYNPLEK [MYOC_Y479] , please?
Result string: 0.744

Query string: What does the data say about its SH2 binding enrichment? Entry: RLSVDYSKKSK [TUBA3E_Y161]
Result string: 0.894

Query string: Would you kindly share the measured SH2 binding enrichment for RCLKDYGEFEV [GINS1_Y156] ?
Result string: 0.979

Query string: Which SH2 binding enrichment value belongs to EQSNPYMVLDI [ROCK2_Y1197] ?
Result string: 0.923

Query string: Given the entry HHTNEYEYDEL [TGM1_Y134_D132N] , report its measured SH2 binding enrichment.
Result string: 0.902

Query string: Tell me the measured SH2 binding enrichment of MTFQNYGQALF [FAM20C_Y279] , please.
Result string: 0.921

Query string: Suppose we examine the sequence TVSQPYSFIEF [SEC22B_Y110_R108Q] ; what SH2 binding enrichment value has been reported?
Result string: 1.06

Query string: Entry IFRASYFRRGD [LTK_Y676_YF] has what SH2 binding enrichment?
Result string: 0.382

Query string: I have this sequence here, TRVMEYISRLD [CLTCL1_Y1043] , and I need its recorded SH2 binding enrichment.
Result string: 1.03

Query string: # get_value(readout='SH2 binding enrichment', item= QEGPEYWDQQT [HLA-A_Y83_E87Q] )
Result string: 0.664

Query string: Request the reported SH2 binding enrichment associated with TSESSYFKSLN [NGEF_Y288_A286S_YF]
Result string: 0.776

Query string: I have this sequence here, HESEIYCKVCY [CSRP3_Y57] , and I need its recorded SH2 binding enrichment.
Result string: 1.58

Query string: I would be grateful if you could share the reported SH2 binding enrichment for NGSKAYAYVHF [PABPC5_Y147_G146A] .
Result string: 0.903

Query string: Fill in the blank: the reported SH2 binding enrichment of RSSNTYTLTDV [ALCAM_Y298] is ____.
Result string: 0.82

Query string: Need SH2 binding enrichment, item AVLQPYIFVAT [CFTR_Y1014]
Result string: 0.65

Query string: Fill in: SH2 binding enrichment of GDGRFYMKEAI [PGM1_Y66] is ___
Result string: 0.642

Query string: Find the recorded SH2 binding enrichment belonging to GIVEEYQLPFF [BMPR1A_Y453_YF] and report it.
Result string: 0.799

Query string: Reported SH2 binding enrichment, sequence MGSYNYLGFAW [SPTLC2_Y178_R183W] : ____
Result string: 0.682

Query string: # input sequence: CEAIEYLESKQ [BTK_Y511_M509I] ; wanted: its SH2 binding enrichment
Result string: 0.774

Query string: Can you share its SH2 binding enrichment? I mean this sequence: FSPFDYQPCLA [TNS1_Y798_YF]
Result string: 0.756

Query string: # input sequence: MTEEQYIKMNR [ARFGEF2_Y797_K794E] ; wanted: its SH2 binding enrichment
Result string: 0.674

Query string: Find the recorded SH2 binding enrichment belonging to EWLRRYLENGK [HLA-A_Y195] and report it.
Result string: 0.932

Query string: Param item = EFLQKYKGFKI [SYNE1_Y6953_YF] ; retrieve measured SH2 binding enrichment.
Result string: 0.95

Query string: # get_value(readout='SH2 binding enrichment', item= WEPFGFAVTRC [PTPRT_Y412_Y412F] )
Result string: 0.774

Query string: Which measured SH2 binding enrichment value corresponds to FRDALYKFMVD [PHEX_Y250_YF] ?
Result string: 0.897

Query string: What SH2 binding enrichment value was documented for this sequence, EWRSPYGLTPR [GRIN3B_Y601] ?
Result string: 1.3

Query string: I am curious: what SH2 binding enrichment value has been reported for IMAFFYMCDSA [CASD1_Y382_R386S_YF] ?
Result string: 1.1
